- assay.target: T1, NRAS (human, UniProt P01111 1-174, limits assumed)
- T1 construct: also called Neuroblastoma-RAS; NRAS (WT)
- method.notes: yeast display, cells sorted for binding to NRAS (WT);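 further: Yeast-displayed monobody variants with one or two residue substitutions, monobody sequences read from cells recovered by sorting for binding to wild-type NRAS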

binder	binding result
Mb(NRAS_24) with the FG loop of SEQ ID NO: 49 (designed binder, length of the loop entry not visible) VSSVPTKLEVVAATPTSLLISWDAPAVTVDFYVITYGETGGYAWAYQEFKVPGSKSTATISGLSPGVDYTITVYAYQVIHYIWKYYSPISINYRT	binds
Mb(NRAS_24) with the FG loop of SEQ ID NO: 47 (designed binder, length of the loop entry not visible) VSSVPTKLEVVAATPTSLLISWDAPAVTVDFYVITYGETGGYAWAYQEFKVPGSKSTATISGLSPGVDYTITVYAYQVIHHIWKYYSPISINYRT	binds
Mb(NRAS_24) with the FG loop of SEQ ID NO: 56 (designed binder, length of the loop entry not visible) VSSVPTKLEVVAATPTSLLISWDAPAVTVDFYVITYGETGGYAWAYQEFKVPGSKSTATISGLSPGVDYTITVYAYQVIRYIWKYYSPISINYRT	binds
Mb(NRAS_24) with the FG loop of SEQ ID NO: 50 (designed binder, length of the loop entry not visible) VSSVPTKLEVVAATPTSLLISWDAPAVTVDFYVITYGETGGYAWAYQEFKVPGSKSTATISGLSPGVDYTITVYAYQVIKHIWKYYSPISINYRT	binds

Data credit: patent US20260263609A1
